Target: Human CaV2.2 channels (Homo sapiens, UniProt Q00975)
Construct: expressed in transfected cells
Sequence (P54289 947-1103): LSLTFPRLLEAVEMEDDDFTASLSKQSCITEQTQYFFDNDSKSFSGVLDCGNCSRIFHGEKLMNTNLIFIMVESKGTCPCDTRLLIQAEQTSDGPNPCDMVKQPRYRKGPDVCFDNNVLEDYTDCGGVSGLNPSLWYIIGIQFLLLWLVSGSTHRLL
Sequence (P54289 25-946): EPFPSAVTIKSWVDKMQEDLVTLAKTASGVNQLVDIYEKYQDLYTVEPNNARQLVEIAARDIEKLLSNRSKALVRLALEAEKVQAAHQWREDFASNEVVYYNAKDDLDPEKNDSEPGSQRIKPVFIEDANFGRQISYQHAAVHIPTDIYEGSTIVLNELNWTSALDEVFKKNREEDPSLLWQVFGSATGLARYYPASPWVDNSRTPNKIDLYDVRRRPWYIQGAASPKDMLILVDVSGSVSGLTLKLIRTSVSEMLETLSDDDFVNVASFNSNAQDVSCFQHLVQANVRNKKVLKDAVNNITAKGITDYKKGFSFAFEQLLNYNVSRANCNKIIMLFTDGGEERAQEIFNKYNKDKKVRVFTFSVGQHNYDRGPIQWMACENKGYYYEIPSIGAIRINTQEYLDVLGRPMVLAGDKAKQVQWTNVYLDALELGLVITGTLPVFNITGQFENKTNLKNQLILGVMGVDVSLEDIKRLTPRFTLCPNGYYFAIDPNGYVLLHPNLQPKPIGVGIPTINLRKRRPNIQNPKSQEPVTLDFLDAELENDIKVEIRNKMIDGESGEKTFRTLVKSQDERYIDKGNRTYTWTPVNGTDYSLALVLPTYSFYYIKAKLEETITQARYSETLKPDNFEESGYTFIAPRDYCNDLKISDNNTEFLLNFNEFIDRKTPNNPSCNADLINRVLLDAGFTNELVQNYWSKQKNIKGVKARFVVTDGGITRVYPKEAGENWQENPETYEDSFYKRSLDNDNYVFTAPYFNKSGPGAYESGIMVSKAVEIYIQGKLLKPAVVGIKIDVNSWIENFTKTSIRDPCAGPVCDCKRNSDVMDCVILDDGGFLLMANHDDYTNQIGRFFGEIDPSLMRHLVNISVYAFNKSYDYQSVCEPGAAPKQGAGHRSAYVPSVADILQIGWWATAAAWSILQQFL
Sequence (P54284 whole entry, further chain): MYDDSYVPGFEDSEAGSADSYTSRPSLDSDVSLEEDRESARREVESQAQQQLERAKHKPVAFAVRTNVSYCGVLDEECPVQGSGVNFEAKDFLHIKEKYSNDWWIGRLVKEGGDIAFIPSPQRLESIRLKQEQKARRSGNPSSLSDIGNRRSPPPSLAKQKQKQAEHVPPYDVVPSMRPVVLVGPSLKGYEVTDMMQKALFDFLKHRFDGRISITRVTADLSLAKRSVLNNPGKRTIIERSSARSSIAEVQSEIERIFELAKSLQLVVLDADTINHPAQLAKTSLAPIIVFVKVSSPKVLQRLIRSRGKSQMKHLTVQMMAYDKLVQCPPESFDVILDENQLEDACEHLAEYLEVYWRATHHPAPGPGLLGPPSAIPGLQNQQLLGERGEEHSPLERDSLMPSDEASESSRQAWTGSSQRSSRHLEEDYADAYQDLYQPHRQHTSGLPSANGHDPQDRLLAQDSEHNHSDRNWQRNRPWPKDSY
Sequence (Q00975 whole entry): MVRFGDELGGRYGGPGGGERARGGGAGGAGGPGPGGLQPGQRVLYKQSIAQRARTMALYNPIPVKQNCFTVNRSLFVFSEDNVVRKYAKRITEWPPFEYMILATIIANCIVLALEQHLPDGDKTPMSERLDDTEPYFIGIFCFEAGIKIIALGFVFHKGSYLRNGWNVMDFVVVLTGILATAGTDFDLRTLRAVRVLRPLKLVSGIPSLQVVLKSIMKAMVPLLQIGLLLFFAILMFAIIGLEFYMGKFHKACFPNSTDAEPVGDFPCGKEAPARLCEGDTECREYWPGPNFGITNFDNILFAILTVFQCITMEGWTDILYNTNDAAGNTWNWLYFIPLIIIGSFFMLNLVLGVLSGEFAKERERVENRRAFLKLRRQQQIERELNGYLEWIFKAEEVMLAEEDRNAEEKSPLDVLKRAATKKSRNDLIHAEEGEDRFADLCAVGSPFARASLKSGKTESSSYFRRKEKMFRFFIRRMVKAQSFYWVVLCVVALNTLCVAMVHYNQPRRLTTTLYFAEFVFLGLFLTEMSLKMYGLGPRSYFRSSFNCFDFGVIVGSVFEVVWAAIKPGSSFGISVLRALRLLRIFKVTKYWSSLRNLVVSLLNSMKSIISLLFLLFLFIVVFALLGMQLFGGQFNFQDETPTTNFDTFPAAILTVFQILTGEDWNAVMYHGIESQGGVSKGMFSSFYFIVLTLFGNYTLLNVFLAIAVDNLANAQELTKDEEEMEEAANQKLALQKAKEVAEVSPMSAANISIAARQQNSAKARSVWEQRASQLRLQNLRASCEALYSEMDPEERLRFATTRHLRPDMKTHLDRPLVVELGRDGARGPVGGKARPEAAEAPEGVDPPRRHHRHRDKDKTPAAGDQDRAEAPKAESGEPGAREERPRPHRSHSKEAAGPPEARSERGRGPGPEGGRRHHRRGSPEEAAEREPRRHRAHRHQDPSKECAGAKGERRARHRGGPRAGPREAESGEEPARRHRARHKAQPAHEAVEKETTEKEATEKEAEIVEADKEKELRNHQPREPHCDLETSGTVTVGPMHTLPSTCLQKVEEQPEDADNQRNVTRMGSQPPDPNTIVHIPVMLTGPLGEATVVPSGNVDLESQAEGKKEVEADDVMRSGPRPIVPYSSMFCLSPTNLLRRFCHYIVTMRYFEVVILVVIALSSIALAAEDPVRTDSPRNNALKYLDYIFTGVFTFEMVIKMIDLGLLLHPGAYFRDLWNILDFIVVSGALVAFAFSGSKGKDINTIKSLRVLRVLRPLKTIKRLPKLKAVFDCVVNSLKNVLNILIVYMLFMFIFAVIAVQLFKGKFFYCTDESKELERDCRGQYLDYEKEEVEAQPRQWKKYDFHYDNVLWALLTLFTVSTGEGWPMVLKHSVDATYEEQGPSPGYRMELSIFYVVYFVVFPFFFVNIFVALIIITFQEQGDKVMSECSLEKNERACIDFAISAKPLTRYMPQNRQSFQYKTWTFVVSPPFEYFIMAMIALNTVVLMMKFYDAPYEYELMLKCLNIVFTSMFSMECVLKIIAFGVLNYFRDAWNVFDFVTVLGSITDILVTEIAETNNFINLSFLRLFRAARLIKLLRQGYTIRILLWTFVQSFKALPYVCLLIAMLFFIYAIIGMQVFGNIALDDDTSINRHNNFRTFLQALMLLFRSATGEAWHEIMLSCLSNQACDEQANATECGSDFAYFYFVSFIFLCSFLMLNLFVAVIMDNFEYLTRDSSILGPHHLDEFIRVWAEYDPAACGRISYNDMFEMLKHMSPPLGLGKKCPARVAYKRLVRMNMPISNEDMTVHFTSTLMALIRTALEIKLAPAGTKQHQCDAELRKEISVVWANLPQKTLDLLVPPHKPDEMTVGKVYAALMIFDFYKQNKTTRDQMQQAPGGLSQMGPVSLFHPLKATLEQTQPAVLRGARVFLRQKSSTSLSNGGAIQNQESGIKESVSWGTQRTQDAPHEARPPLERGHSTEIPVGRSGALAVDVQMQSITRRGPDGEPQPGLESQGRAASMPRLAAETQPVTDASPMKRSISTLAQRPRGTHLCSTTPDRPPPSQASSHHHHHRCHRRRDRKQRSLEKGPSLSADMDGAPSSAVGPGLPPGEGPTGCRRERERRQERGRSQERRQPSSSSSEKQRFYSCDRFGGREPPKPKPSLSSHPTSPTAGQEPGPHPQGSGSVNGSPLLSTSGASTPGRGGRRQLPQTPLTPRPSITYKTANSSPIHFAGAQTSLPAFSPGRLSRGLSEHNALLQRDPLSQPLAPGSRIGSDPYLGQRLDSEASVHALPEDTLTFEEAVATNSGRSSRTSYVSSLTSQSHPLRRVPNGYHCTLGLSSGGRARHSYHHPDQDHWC
Experiment: Fluorescence assay for CaV2.2 channels using potassium depolarization to induce channel opening (FLIPR, Fluo 4)
Assay type: cell-based
Conditions: HEK293, 3 μM test compound; alternative assay buffer 30 mM KCl (inactivated channel state); HEK293 cells stably expressing human CaV2.2; read-out: Activity Category: %-Inhib (CaV2.2) @3 μM @30 mM KCl
readout-label: inhibition at 3 µM

[
  {
    "compound": "CC(C)Oc1ccc(C2CC(C)(S(=O)(=O)c3cccc(C(F)(F)F)c3)CCO2)cn1 (racemic) [SC-302]",
    "test-target": "Human CaV2.2 channels (Homo sapiens, UniProt Q00975)",
    "inhibition at 3 µM": "> 95%"
  },
  {
    "compound": "CC1(S(=O)(=O)c2cccc(C(F)(F)F)c2)CCOC(c2ccc(-n3cncn3)nc2)C1 (racemic) [SC-407]",
    "test-target": "Human CaV2.2 channels (Homo sapiens, UniProt Q00975)",
    "inhibition at 3 µM": "75 to 95%"
  },
  {
    "compound": "O=S(=O)(c1cccc(C(F)(F)F)c1)C1CCOC(c2ccc(C(F)(F)F)nc2)C1 (centres unmarked)",
    "test-target": "Human CaV2.2 channels (Homo sapiens, UniProt Q00975)",
    "inhibition at 3 µM": "75 to 95%"
  },
  {
    "compound": "COCCOc1ccc(C2CC(C)(S(=O)(=O)c3cccc(C(F)(F)F)c3)CCO2)cn1 (racemic) [SC-420]",
    "test-target": "Human CaV2.2 channels (Homo sapiens, UniProt Q00975)",
    "inhibition at 3 µM": "75 to 95%"
  },
  {
    "compound": "CC1(S(=O)(=O)c2cccc(OC(F)(F)F)c2)CCOC(c2ncc(S(C)(=O)=O)cc2Cl)C1 (centres unmarked)",
    "test-target": "Human CaV2.2 channels (Homo sapiens, UniProt Q00975)",
    "inhibition at 3 µM": "75 to 95%"
  },
  {
    "compound": "CC1(S(=O)(=O)c2cccc(C(F)(F)F)c2)CCOC(c2ccc(C(F)(F)F)cn2)C1 (centres unmarked)",
    "test-target": "Human CaV2.2 channels (Homo sapiens, UniProt Q00975)",
    "inhibition at 3 µM": "> 95%"
  }
]

Pending compound:
Enquiry: Give me measured inhibition at 3 µM, please, for this compound: CC1(S(=O)(=O)c2cccc(C(F)(F)F)c2)CCOC(c2ccc(OC(F)F)nc2)C1 (racemic) [SC-417]
Return: > 95%
